Source of measurements: PubChem BioAssay AID248

Test system: L1210 leukemia ip in BDF1 mice, survival T/C
Experiment: NCI In Vivo Anticancer Drug Screen. Data for tumor model L1210 Leukemia (intraperitoneal) in B6D2F1 (BDF1) mice
Conditions: endpoint: mean survival time; dose: 100.0 mg/kg/injection; schedule: Q04DX003 (ip); vehicle: carboxymethylcellulose (CMC); higher = longer survival
Toxic doses and inconclusive results are not listed.
assay endpoint: T/C

Some compounds with known T/C results, for comparison:
CNC(=O)NC1CCCCC1 :: 100 % of control
CC(=O)C1(O)CCC2C3CC=C4CC(O)CCC4(C)C3CCC21C (centres undefined) :: 97 % of control
CCC(Cl)COP(=O)(OCC(Cl)CC)C(CC)CCl (centres undefined) :: 101 % of control

[in] // lookup T/C for `CCCOC(=O)c1ccc(OC(=O)NC)cc1`
[out] 102 % of control

----------
Each entry below lists one item and its recorded T/C value.
Test system: L1210 leukemia ip in BDF1 mice, survival T/C
Test: NCI In Vivo Anticancer Drug Screen. Data for tumor model L1210 Leukemia (intraperitoneal) in B6D2F1 (BDF1) mice
Conditions: endpoint: mean survival time; dose: 25.0 mg/kg/injection; schedule: Q01DX001 (ip); vehicle: saline; higher = longer survival
Inconclusive results and toxic doses are left out.

See these solved cases before continuing.
CCCN(CCC)C[Si](C)(C)C :: 105 % of control
CCc1ccc(N2C(N)=NC(N)=NC2(C)C)cc1 :: 104 % of control
CCN=C(N)N=C(N)N :: 96 % of control

// switching to the query compound
[in] Find the recorded T/C belonging to CCOC(=O)c1ccc(N(CC(S)CNc2cc(C)nc(N)n2)S(=O)(=O)c2ccc(C)cc2)cc1 (centres undefined) and report it.
[out] 95 % of control

----------
Test system: L1210 leukemia ip in BDF1 mice, survival T/C
Assay: NCI In Vivo Anticancer Drug Screen. Data for tumor model L1210 Leukemia (intraperitoneal) in B6D2F1 (BDF1) mice
Details: endpoint: mean survival time; dose: 12.5 mg/kg/injection; schedule: Q01DX009 (ip); vehicle: saline; higher = longer survival
Inconclusive results and toxic doses are left out.
Listed here: items and their measured T/C.

Record excerpt, results attached:
CN(C)/N=C/c1ccc[n+](C)c1 :: 109 % of control
O=C(CCl)c1ccc(O)c(O)c1 :: 105 % of control

[in] Report T/C for `CCCCN(CC)CC#N` please.
[out] 101 % of control

[in] State the recorded T/C for this entry: `CCN1c2ccccc2C(Cl)(c2ccc(N(C)C)cc2)c2ccccc21`
[out] 115 % of control

[in] Fill in the blank: the reported T/C of COC(=O)C(C)CN1CCCC1 (centres undefined) is ____.
[out] 97 % of control

[in] Request the reported T/C associated with CON(C)CC(Cl)c1ccccc1 (centres undefined)
[out] 100 % of control

----------
System: L1210 leukemia ip in BDF1 mice, survival T/C
Test: NCI In Vivo Anticancer Drug Screen. Data for tumor model L1210 Leukemia (intraperitoneal) in B6D2F1 (BDF1) mice
Conditions: endpoint: mean survival time; dose: 100.0 mg/kg/injection; schedule: Q01DX009 (ip); vehicle: saline with Tween-80; higher = longer survival
Description: The antitumor activity of compounds was measured in mice bearing transplantable tumors. Survival or tumor size were measured and the results are expressed as the measurement made in the treated group (T) divided by the measurement made in the vehicle treated control group (C). The tumor model used in this assay is L1210 Leukemia (intraperitoneal) in B6D2F1 (BDF1) mice
Inconclusive results and toxic doses are left out.
assay endpoint: T/C

Example results:
CS(=O)(=O)OCC(OS(C)(=O)=O)C(COS(C)(=O)=O)OS(C)(=O)=O (configuration not stated) :: 91 % of control
O=C(O)CCCc1ccc([N+](=O)[O-])cc1Cl :: 103 % of control
CC(Cc1ccccc1)C(=O)c1ccccc1 (configuration not stated) :: 102 % of control
O=S(O)c1ccc2cc(O)c(S(=O)O)cc2c1 :: 95 % of control
OCCN(CCO)c1cc(O)cc(O)c1 :: 98 % of control

[in] Please report the recorded T/C for `OCCNC(=S)Nc1cccc(C(F)(F)F)c1` .
[out] 100 % of control

[in] Entry under review: `CCOC1=NN(c2ccccc2)C(=O)C1` . Reported T/C?
[out] 104 % of control

----------
Test system: L1210 leukemia ip in BDF1 mice, survival T/C
Assay: NCI In Vivo Anticancer Drug Screen. Data for tumor model L1210 Leukemia (intraperitoneal) in B6D2F1 (BDF1) mice
Settings: endpoint: mean survival time; dose: 400.0 mg/kg/injection; schedule: Q01DX001 (ip); vehicle: acetone; higher = longer survival
Inconclusive results and toxic doses are left out.
assay endpoint: T/C

O=[N+]([O-])c1ccc2scnc2c1 :: 95 % of control
O=C(O)CNC(=O)NCO :: 103 % of control
CC1=CN(C)C(=O)CC1 :: 104 % of control

Pending compound:
[in] # input compound: `FN1C(F)(F)C(F)(F)C(F)(F)C(F)(F)C1(F)F` ; wanted: its T/C
[out] 92 % of control

----------
Test system: L1210 leukemia ip in BDF1 mice, survival T/C
Experiment: NCI In Vivo Anticancer Drug Screen. Data for tumor model L1210 Leukemia (intraperitoneal) in B6D2F1 (BDF1) mice
Conditions: endpoint: mean survival time; dose: 400.0 mg/kg/injection; schedule: Q01DX001 (ip); vehicle: Klucel (hydroxypropylcellulose) (HPC); higher = longer survival
Toxic doses and inconclusive results are not listed.
assay endpoint: T/C

COc1ccccc1-n1c(O)c(N=Nc2ccc(Br)cc2)c(=O)n(-c2ccc(C)cc2)c1=S :: 102 % of control

[in] Please provide the recorded T/C for `CN(C)c1ccc(C=Nc2cccc([N+](=O)[O-])c2)cc1` , tested on L1210 leukemia ip in BDF1 mice, survival T/C.
[out] 90 % of control

[in] Lab note: need T/C with L1210 leukemia ip in BDF1 mice, survival T/C for entry `c1ccc2sc(SN3CCCCC3)nc2c1` , please look it up.
[out] 94 % of control

[in] What value of T/C on L1210 leukemia ip in BDF1 mice, survival T/C does `O=C(COc1ccc(Cl)c(Cl)c1)N(Cc1ccccc1)Cc1cccnc1` have?
[out] 96 % of control

[in] For L1210 leukemia ip in BDF1 mice, survival T/C, provide T/C of O=C1OC(c2ccc(F)c3ccccc23)C2CCCCC12 (stereo not given) please.
[out] 96 % of control

[in] // lookup T/C | system=L1210 leukemia ip in BDF1 mice, survival T/C | key= CCCCCCCN(CCCCCCC)CC(O)c1cc(-c2ccc(Cl)cc2)nc2c(C(F)(F)F)cccc12 (stereo not given)
[out] 100 % of control

[in] Requested read-out T/C, target or system L1210 leukemia ip in BDF1 mice, survival T/C, entry `Cc1nnc(C(N)=O)c(=O)[nH]1`
[out] 97 % of control

----------
System: L1210 leukemia ip in BDF1 mice, survival T/C
Test: NCI In Vivo Anticancer Drug Screen. Data for tumor model L1210 Leukemia (intraperitoneal) in B6D2F1 (BDF1) mice
Settings: endpoint: mean survival time; dose: 50.0 mg/kg/injection; schedule: Q01DX001 (ip); vehicle: carboxymethylcellulose (CMC); higher = longer survival
Toxic doses and inconclusive results are not listed.
assay endpoint: T/C

Use the examples below as a reference point.
Cc1cc(N(CCCl)CCCl)ccc1C=Nc1ccc(S(N)(=O)=O)cc1 :: 95 % of control
Nc1c(Cl)cc([N+](=O)[O-])cc1Cl :: 95 % of control
O=C(Sc1ccccc1)c1ccccc1 :: 105 % of control
O=C(NCCCCCCNC(=O)c1ccccc1)c1ccccc1 :: 100 % of control

[in] What does the record list as T/C for `O=C(Nc1cccc2ccccc12)c1ccccc1O` ?
[out] 113 % of control

[in] Look at this compound and give its reported T/C. CNc1ncnc2c1ccn2C1OC(CO)C(O)C1O (configuration not stated)
[out] 110 % of control

[in] Please report the recorded T/C for `COc1ccc(OCC(=O)N2CCCCCC2)cc1` .
[out] 100 % of control

----------
The reader will find reported T/C values listed item by item below.
Test system: L1210 leukemia ip in BDF1 mice, survival T/C
Assay: NCI In Vivo Anticancer Drug Screen. Data for tumor model L1210 Leukemia (intraperitoneal) in B6D2F1 (BDF1) mice
Conditions: endpoint: mean survival time; dose: 25.0 mg/kg/injection; schedule: Q01DX009 (ip); vehicle: saline; higher = longer survival
Toxic doses and inconclusive results are not listed.

[in] Need T/C, item CCC(C)[Se][Se]C(C)CC (stereo unspecified)
[out] 91 % of control

----------
System: L1210 leukemia ip in BDF1 mice, survival T/C
Test: NCI In Vivo Anticancer Drug Screen. Data for tumor model L1210 Leukemia (intraperitoneal) in B6D2F1 (BDF1) mice
Details: endpoint: mean survival time; dose: 200.0 mg/kg/injection; schedule: Q01DX001 (ip); vehicle: Klucel (hydroxypropylcellulose) (HPC); higher = longer survival
Inconclusive results and toxic doses are left out.
assay endpoint: T/C

Example entries and their recorded answers appear below.
CC(=O)Nc1nc(/C=C/C(=O)CCl)c(CCCCc2ccccc2)c(=O)[nH]1 :: 96 % of control
CCOC(=O)/C=C(\C)c1ccc([N+](=O)[O-])cc1 :: 100 % of control
CC(=O)Nc1ccc(N=Nc2ccccc2)cc1 :: 100 % of control
O=C(NC(=O)C(Cl)Cl)Nc1cccc2c1Cc1ccccc1-2 :: 89 % of control
CCCCc1c(-c2ccccc2)nc(N)[nH]c1=O :: 102 % of control
c1ccc(Nc2nc3ccccc3o2)cc1 :: 89 % of control

[in] Fill in the blank: the reported T/C of `N#CCCCCC(=O)c1ccc(O)cc1O` is ____.
[out] 101 % of control
